Recorded MIC by entry
Tested on: Klebsiella pneumoniae
Experiment: Antimicrobial activity against Klebsiella pneumoniae 278sp by Etest method
Type: functional
ASSAY METRIC: MIC (µg/mL)

> print(dat)
                                   molecule  reported.measurement
1  CC(C)(O/N=C(\C(=O)N[C@@H]1C(=O)N2C(C(=O)[O-])=C(C[n+]3ccccc3)CS[C@H]12)c1csc(N)n1)C(=O)O [CEFTAZIDIME]                     1
2  CO[C@@]1(NC(=O)Cc2cccs2)C(=O)N2C(C(=O)O)=C(COC(N)=O)CS[C@@H]21 [CEFOXITIN]                     4
3  C[C@H]1[C@H](NC(=O)/C(=N\OC(C)(C)C(=O)O)c2csc(N)n2)C(=O)N1S(=O)(=O)O [AZTREONAM]                 0.064
4  CO/N=C(\C(=O)N[C@@H]1C(=O)N2C(C(=O)O)=C(COC(C)=O)CS[C@H]12)c1csc(N)n1 [CEFOTAXIME]                 0.047
5  CCn1cc(C(=O)O)c(=O)c2cc(F)c(N3CCNCC3)cc21 [NORFLOXACIN]                 0.125
6  CO/N=C(\C(=O)N[C@@H]1C(=O)N2C(C(=O)[O-])=C(C[N+]3(C)CCCC3)CS[C@H]12)c1csc(N)n1 [CEFEPIME]                  0.19
7  C[C@@H](O)[C@H]1C(=O)N2C(C(=O)O)=C(SCCNC=N)C[C@H]12 [IMIPENEM ANHYDROUS]                  0.25
8  CC1(C)S[C@@H]2[C@H](NC(=O)[C@H](N)c3ccccc3)C(=O)N2[C@H]1C(=O)O [AMPICILLIN]                    96
9  O=C(O)c1cn(C2CC2)c2cc(N3CCNCC3)c(F)cc2c1=O [CIPROFLOXACIN]                 0.047
